Data provenance is PubChem BioAssay AID1259418.

In this section, each of the compounds is paired with its reported max activity.
Test summary: inhibitors of Toxoplasma growth in IFN-γ-primed HeLa – cell-based, ME49Luc, luciferase, 72 h, dose response (AID 1259418)
Assay conditions: T. gondii ME49Luc in IFN-y HeLa, stronger effect = lower value, -100% = high-dose IFN-γ control wells; at 19.5 µM unless noted
Among all 3,400 compounds or so, about 840 (25%) were called active. About 11% were inconclusive and are not listed. The list is a sample of the results. Potency and affinity values are given separately.

Previously resolved entries follow.
COc1ccc(Cl)cc1NC(=O)N1CCc2nc(-c3ccccc3)sc2C1 ... -14.8% [at 0.35 µM] (inactive)
CCc1nc(OCC(=O)Nc2ccc(C)cc2Br)c2ccccc2n1 ... -11.9% [at 2.6 µM] (inactive)
COc1ccc(-c2nc(Nc3cc(C)ccc3OC)c3ccccc3n2)cc1 ... 19.6% (inactive)
Cc1ccccc1CNC1=NCCNC12CCN(S(=O)(=O)c1cccs1)CC2 ... 21.2% [at 10 µM] (inactive)
COc1cc(Nc2nc(SCc3ccccc3Cl)nc3ccccc23)cc(OC)c1OC ... 11% [at 0.68 µM] (inactive)
Cc1oc(-c2cccc(Cl)c2)nc1CN1CCN(C(=O)Nc2cccc(Cl)c2)CC1 ... 10.8% [at 0.35 µM] (inactive)
COc1ccc(NC(=O)N2CC[C@@H]3[C@H]2c2cc(C4=CCCCC4)ccc2N(C)[C@H]3CO)cc1 ... 18.9% [at 0.3 µM] (inactive)
COCCCNC1=NCCNC12CCN(S(=O)(=O)c1ccc(C)cc1C)CC2 ... 13.7% [at 10 µM] (inactive)

Continue with the next compound.
Enquiry: Look up max activity: Cc1ccc(Cl)cc1N1CCN(C(=O)CC2Nc3c4ccccc4nc(=S)n3C2=O)CC1 (centres undefined)
Return: 25.8% [at 0.35 µM] (inactive)

###

Test summary: inhibitors of Toxoplasma growth in IFN-γ-primed HeLa – cell-based, ME49Luc, luciferase, 72 h, dose response (AID 1259418)
Assay conditions: T. gondii ME49Luc in IFN-y HeLa, stronger effect = lower value, -100% = high-dose IFN-γ control wells; at 19.5 µM unless noted
Screen size: about 3,400 compounds; about 840 (25%) were called active. Not shown: some 11% with an inconclusive outcome. Not all results are given here. Measured potencies and affinities stand elsewhere.
Listing of entries alongside the reported max activity.

Previously resolved entries follow.
Cc1ccc(NC(=O)Nc2ccc(-c3nc(-c4ccc(C)cc4)co3)cc2)cc1 ... 24% [at 5 µM] (inactive)
Cc1noc(C)c1C1CCCN1C(=O)Cn1nc(C(F)(F)F)c2c1CCCC2 (stereo not given) ... -14% [at 0.35 µM] (inactive)
COc1ccc(NC(=O)N2CCN(Cc3nc(-c4ccccc4C)oc3C)CC2)cc1 ... 6.09% [at 0.16 µM] (inactive)
COc1ccc(-c2nc(Nc3ccc(F)c(Cl)c3)c3ccccc3n2)cc1 ... 19.7% (inactive)
C=CCNc1ncnc2c1cnn2-c1ccc(Cl)cc1 ... 134% [at 0.35 µM] (inactive)

Here is another compound to look at.
Enquiry: Reported max activity, compound `Cc1cccc(-c2nc(Cn3nnc(-c4nc(-c5ccc6c(c5)OCO6)no4)c3C)c(C)o2)c1` : ____
Return: -10.5% [at 0.16 µM] (inactive)

###

Test summary: inhibitors of Toxoplasma growth in IFN-γ-primed HeLa – cell-based, ME49Luc, luciferase, 72 h, dose response (AID 1259418)
Assay conditions: T. gondii ME49Luc in IFN-y HeLa, stronger effect = lower value, -100% = high-dose IFN-γ control wells; at 19.5 µM unless noted
Hit rate of the full screen: of about 3,400 compounds, about 840 (25%) were called active. Another 11% or so got no clear call; they are omitted. These entries were drawn from the full list. Potency and affinity values are given separately.
Measured endpoint: max activity

Consider the reported max activity for these molecules:
Cc1ccc(-c2nc3c(s2)CN(S(=O)(=O)c2ccc(Cl)cc2)CC3)cc1 ... 6.55% [at 10 µM] (inactive)
CN(C)c1cccc(C(=O)N2CSC[C@@H]2C(=O)NCCc2csc(-c3ccccc3)n2)c1 ... 9.09% [at 0.16 µM] (inactive)
Cc1cccc(Cn2c(CN3CCC(C(=O)NCc4cccnc4)CC3)cc3ccccc32)c1 ... 15.7% [at 10 µM] (inactive)
CN1C(=O)c2cc(NC(=O)Cc3cccs3)ccc2OC[C@@H]2O[C@H](CC(=O)N[C@H]3CCN(Cc4ccccc4)C3)CC[C@@H]21 ... 21.7% (inactive)

Enquiry: Could you tell me which max activity is on file for `COc1ccc(C(=O)N2CCC3(CC2)Nc2ccc(Cl)cc2-n2cccc23)cc1OC` ?
Return: 9.68% [at 0.68 µM] (inactive)

Enquiry: Could you share which max activity value was measured for O=S(=O)(Cc1ccccc1)N1CC2CN(Cc3cccc(Cl)c3)CC2C1 (stereo not drawn) ?
Return: 9.94% (inactive)

###

In this section we review reported max activity values for a set of molecules.
Test summary: inhibitors of Toxoplasma growth in IFN-γ-primed HeLa – cell-based, ME49Luc, luciferase, 72 h, dose response (AID 1259418)
Assay conditions: T. gondii ME49Luc in IFN-y HeLa, stronger effect = lower value, -100% = high-dose IFN-γ control wells; at 19.5 µM unless noted
The campaign covered roughly 3,400 compounds. About 840 (25%) were called active. Not shown: some 11% with an inconclusive outcome. Only a sample is shown. Entries with a potency or affinity are not part of this list.

Worked cases, max activity given:
CC(C)C(=O)Nc1ccc(-c2nc(-c3ccccc3)co2)cc1 ... -22.2% [at 10 µM] (inactive)
COc1ccccc1NC(=O)N1CCN(Cc2nc(-c3cccc(Cl)c3)oc2C)CC1 ... 15.9% [at 1.35 µM] (inactive)
CCOc1ccc(S(=O)(=O)N2CCC(C(=O)NCCc3csc(-c4ccccc4)n3)CC2)cc1 ... 21.5% [at 5 µM] (inactive)
CC(=O)NCC(=O)N1CCC2(CC1)CC(c1ccccc1)C(=O)N2 (stereo unspecified) ... 28.8% (inactive)
O=C(NCCc1csc(-c2ccccc2)n1)C1CCN(S(=O)(=O)c2cccc(F)c2)CC1 ... 8.1% [at 5 µM] (inactive)

Field: next molecule
Enquiry: Which measured max activity value corresponds to `Cc1ccc(CC(=O)Nc2ccc(-c3nc(-c4ccc(C)cc4)co3)cc2)cc1` ?
Return: 19.1% [at 10 µM] (inactive)

###

max activity: recorded values
Test summary: inhibitors of Toxoplasma growth in IFN-γ-primed HeLa – cell-based, ME49Luc, luciferase, 72 h, dose response (AID 1259418)
Assay conditions: T. gondii ME49Luc in IFN-y HeLa, stronger effect = lower value, -100% = high-dose IFN-γ control wells; at 19.5 µM unless noted
Among all 3,400 compounds or so, about 840 (25%) were called active. Roughly 11% stayed inconclusive and do not appear here. Not all results are given here. Measured potencies and affinities stand elsewhere.

Worked cases, answers included:
COc1ccccc1NC(=O)CN1CCC2(CC1)N=C(c1ccc(Cl)cc1)C(=O)N2 ... -13.9% [at 1.35 µM] (inactive)
CN1C(=O)c2cc(NC(=O)c3cccc(F)c3)ccc2OC[C@@H]2O[C@@H](CC(=O)NCC3CCCCC3)CC[C@@H]21 ... -24.1% (inactive)
CN(Cc1ccccn1)C(=O)C1=NOC2(CCN(S(=O)(=O)c3ccc(F)cc3)C2)C1 (stereo not drawn) ... 35.3% (inactive)
COc1ccccc1-c1nc(Cn2nnc(-c3nc(-c4cccc(OC)c4OC)no3)c2C)c(C)o1 ... -11.2% (inactive)
COc1ccc(CCC(=O)N2CCC3(CC2)Nc2cc(F)ccc2-n2cccc23)cc1 ... 14.7% [at 0.68 µM] (inactive)

Enquiry: Please give the measured max activity for this molecule: `CCN1C(=O)CCc2cc(NC(=O)Cc3c(F)cccc3Cl)ccc21`
Return: 7.81% (inactive)

Enquiry: Need max activity, item `Cc1ccc(C)c(-c2coc(-c3ccc(NC(=O)Nc4ccc(F)cc4)cc3)n2)c1`
Return: -5.84% [at 0.35 µM] (inactive)

Enquiry: Which max activity is listed for `CCc1ccc(S(=O)(=O)N2CCC3(CC2)NCCN=C3NCc2ccccc2OC)cc1` ?
Return: 11.2% [at 0.16 µM] (inactive)

Enquiry: Quick one: max activity for `Cc1cccc(NC(=O)N2CCc3nc(-c4ccccc4)sc3C2)c1` ?
Return: -11.3% [at 0.35 µM] (inactive)

Enquiry: What does the data say about its max activity? Entry: `O=C(NCCc1csc(-c2ccccc2)n1)[C@H]1CSCN1S(=O)(=O)c1ccccc1F`
Return: 11.9% [at 0.16 µM] (inactive)

Enquiry: # max activity lookup, item `Cc1ccc2c(c1C)-n1cccc1C1(CCN(C(=O)Cc3cccs3)CC1)N2`
Return: 6.55% [at 0.16 µM] (inactive)

Enquiry: Quick one: max activity for `CCc1ccccc1Nc1nc(-c2ccc(OC)cc2)nc2ccccc12` ?
Return: -9.45% [at 0.16 µM] (inactive)

Enquiry: For `Cc1ccc2c(c1C)-n1cccc1C1(CCN(C(=O)c3ccc(Br)o3)CC1)N2` , what is its reported max activity?
Return: 9.35% [at 0.35 µM] (inactive)
